Test system: UO-31
procedure details: NCI tumour cell line growth inhibition, 48 h
The source made the active and inactive calls. No stated cut-off is given here; in the data, active = GI50 up to about 1.1 µM and inactive = higher. Non-standard residues stand in square brackets, D forms with d. Residues, ends and D or L forms follow the SMILES beside them. ξ: configuration not given here. *: point of attachment. NMeF = CN[C@@H](Cc1ccccc1)C(=O)O; NMeN = CN[C@@H](CC(N)=O)C(=O)O; NMeV = CN[C@H](C(=O)O)C(C)C; ξNMeV = CNC(C(=O)O)C(C)C; Boc = CC(C)(C)OC(=O)*; ξNMeA = CNC(C)C(=O)O; ξV = CC(C)C(N)C(=O)O
Can you answer with just one of these options? class 1 for active, class 0 for inactive

Worked examples, 5 molecules total:
Cc1ccc(-n2c(C)nc3c2C(=O)c2ccccc2C3=O)cc1 | class 0
O=C(NO)c1ccc([N+](=O)[O-])cc1 | class 0
CCOC(=O)C1(C/C=C/CBr)CCc2ccccc2C1=O (stereo unspecified) | class 0
CCC(=O)OCN1C(=O)C=CC1=O | class 0
COC(=O)C(C)N(C)C(=O)[C@H](CC(N)=O)N(C)C(=O)[C@@H]1CCCN1C(=O)[C@H](C(C)C)N(C)C(=O)C(C(C)C)N(C)C(=O)[C@H](Cc1ccccc1)N(C)C(=O)C(NC(=O)OC(C)(C)C)C(C)C (stereo partly specified) (Boc-[ξV][NMeF][ξNMeV][NMeV]P[NMeN][ξNMeA]-OMe) | class 0

[ask] Could you kindly confirm the outcome this assay logged for `N#Cc1cc(-c2nc3cc(F)ccc3s2)ccc1N` ?
[reply] class 0

[ask] `CC1=CC(=O)/C(=C/N2CCNC2=S)C(=O)O1` ?
[reply] class 0

[ask] Lookup `OC(O)(C(F)(F)F)C(F)(F)F`
[reply] class 0

[ask] Let us now turn to `COc1ccc(-c2ccccc2)c2[nH]c3c(c12)CCNC3=O`
[reply] class 0

[ask] Same thing, different molecule: `CC(C(=O)NCCNC(=O)CCCC(=O)N(C)O)C(=O)NCCNC(=O)CCCC(=O)N(C)O`
[reply] class 0

[ask] Check O=C1CCCC[C@H]1C(O)CC1CC(=O)N(c2ccccc2)C(=O)C1 (stereo partly specified) too.
[reply] class 0

[ask] Follow-up entry: `CCOC(=O)c1cc(-c2ccc([N+](=O)[O-])cc2)c([N+](=O)[O-])[nH]1`
[reply] class 0

[ask] Quick one: `N=C(N)SC(c1ccccc1)c1ccccc1`
[reply] class 0

[ask] Next molecule: O=C1CC2(CCCc3sccc32)C(=O)N1 (stereo unspecified)
[reply] class 0

[ask] Check `CC(=O)c1c(C(F)(F)F)[n+]([O-])c2cc(Cl)c(Cl)cc2[n+]1[O-]` too.
[reply] class 1

[ask] Same lookup for `CN1C2(c3ccccc3)C(C(=O)c3ccccc3)=C(C(=O)c3ccccc3)C1(c1ccccc1)c1c(-c3ccccc3)sc(-c3ccccc3)c12` , please.
[reply] class 0

[ask] # iterate: O=C(Cc1ccccc1)N/N=C(/CCN1CCCC1)CC(c1ccccc1)c1c(O)c2ccccc2oc1=O (stereo unspecified)
[reply] class 0

[ask] Okay, and `O/N=C1\CSc2ccccc2C1` ?
[reply] class 0

[ask] Request: `CC(C)N1[C@@H]2CCCC[C@H]2N(C(C)C)P1(=O)C(=O)/C=C/c1ccccc1`
[reply] class 0

[ask] What do you have for `N=c1oc2ccc(Cl)cc2cc1C(=O)NCc1ccccc1` ?
[reply] class 0

[ask] What do you get for `Cc1c(C(=O)O)n(C)c(=O)n(C)c1=O` ?
[reply] class 0

###

Tested on: HCT-116
procedure details: NCI tumour cell line growth inhibition, 48 h
The source made the active and inactive calls. No stated cut-off is given here; in the data, active = GI50 up to about 1.1 µM and inactive = higher.
Quick list: GI50 per entry.

O=C(O/N=C1/CCC/C1=C\c1ccccc1)c1ccc([N+](=O)[O-])cc1 | > 100 µM (inactive)
N=C(N)c1ccc(/N=N\c2c(O)ccc3cc4c(/N=N\c5ccc(C(=N)N)cc5)c(O)ccc4cc23)cc1 | 50 µM (inactive)

Okay, now this compound:
[ask] What value of measured GI50 is listed for CCCCCCC1OC23OC1CCC2C(O)CCC3O (stereo not given) ?
[reply] > 100 µM (inactive)

###

System: OVCAR-3
procedure details: NCI tumour cell line growth inhibition, 48 h
Calls of active or inactive are those of the source. No stated cut-off is given here; in the data, active = GI50 up to about 1.1 µM and inactive = higher.
Answer with one of the outcomes given here: active, inactive

# count of solved cases: 5
C=C1C(=O)O[C@H]2[C@H]1CC(=O)/C(C)=C/CC[C@@]1(C)O[C@@H]21 | active
CC(C)(C)OC(=O)N1C(OP(=O)(Oc2ccccc2)Oc2ccccc2)=CSc2ccccc21 | inactive
C/C(=N\NC(=O)CC(=O)N(C(=O)c1ccc(Cl)cc1)c1ccc(C)cc1)c1ccccc1O | inactive
O=C1Cc2c(-c3cccs3)cc(-c3ccccc3)nc2-c2ccccc2N1 | inactive
CC(=O)CN(Cc1cc(C)c2c(c1)c1ccccc1n2Cc1ccccc1)S(=O)(=O)c1ccc(C)cc1 | inactive

[ask] Which result was noted for this compound in the test: Cc1nnc2n1N=C(c1ccccc1)C(c1ccccc1)S2 (stereo not drawn)
[reply] inactive

[ask] Try O=C(O)C1CCc2nnc(-c3ccccc3)n21 (stereo not drawn) next.
[reply] inactive

[ask] Likewise for CCCCOC(=O)C1C2CCC(O2)C1C(=O)OCCCC (stereo not drawn) ?
[reply] inactive

[ask] Try COc1ccc(C2c3cc4c(cc3OC(NCCO)C2C)OCO4)cc1 (stereo not drawn) next.
[reply] inactive

[ask] Param item: `O=[PH](O)c1cccnc1`
[reply] inactive

[ask] Could you do the same for `CN(C)c1ccc(C(c2ccc(N(C)C)cc2)c2ccc([N+](=O)[O-])cc2)cc1` , please?
[reply] inactive

###

Test system: T47D
procedure details: NCI tumour cell line growth inhibition, 48 h
The source made the active and inactive calls. Cut-off read from the data, not from the text of the source: active = GI50 up to about 1.1 µM and inactive = higher.
Give your call using only these classes: yes (1) (active), no (0) (inactive)

[ask] Could you check what this test reported for `Clc1ccc2nc3c(c(-c4ccccc4)nn3-c3ccccc3)c(-c3ccccc3)c2c1` ?
[reply] no (0)

[ask] // same read-out, input: Nc1ncnc2c(C3OC(CO)C(O)C3O)c[nH]c12 (stereo not given)
[reply] yes (1)

[ask] Entry to check: O=C(Nc1ccccc1)OC1OC(COC(=O)c2ccccc2)C(OC(=O)c2ccccc2)C1OS(=O)(=O)c1ccc([N+](=O)[O-])cc1 (stereo not given)
[reply] no (0)

###

# Lookup of reported GI50 keyed by entry
System: COLO 205
procedure details: NCI tumour cell line growth inhibition, 48 h
The source made the active and inactive calls. Cut-off read from the data, not from the text of the source: active = GI50 up to about 1.1 µM and inactive = higher.

Example results:
CCCCN(C(=O)c1ccccc1)C1CCC(=O)c2[nH]c3ccccc3c21 (stereo unspecified) | 21 µM (inactive)
O=S(=O)(N/C(=N\O)Nc1ccc(Cl)cc1)c1cc(C(F)(F)F)cc(C(F)(F)F)c1 | 18.6 µM (inactive)
Nc1ncnc2c(C3OC(CO)C(O)C3O)c[nH]c12 (stereo unspecified) | 0.01 µM (active)

[ask] # query: GI50 of entry O=C(O)C1CCc2nnc(-c3ccccc3)n21 (stereo unspecified)
[reply] > 100 µM (inactive)

[ask] # repeat for `COC(=O)[C@@H]1C[C@@]2(C3C=CN(C(=O)C(F)(F)F)C=C3)c3ccccc3N(C(=O)C(F)(F)F)[C@H]2N1C(=O)OC`
[reply] > 100 µM (inactive)

[ask] Entry to check: `COC(=O)/C(=C/c1ccc(OC)cc1)c1cc(OC)c(OC)c(OC)c1`
[reply] 1.47 µM (inactive)

[ask] Please do the same for `O=c1c2cccnc2[nH]c2ccc3scnc3c12` as well.
[reply] 5.12 µM (inactive)

[ask] Try the compound `CN(C)/C=N\c1nncc2[nH]cnc12`
[reply] > 100 µM (inactive)

[ask] Follow-up item: `CSc1ncnc2c1ncn2CCC#N`
[reply] > 100 µM (inactive)

[ask] Consider next the compound O=c1ccn(C2OC(CO)C(O)C2F)c(=O)n1Cc1ccccc1 (stereo unspecified) in the same way.
[reply] > 100 µM (inactive)

[ask] Now consider `Cc1cc2oc(=O)c(Cl)c(Cl)c2c(C)c1Cl` .
[reply] 2.56 µM (inactive)

###

System: MDA-MB-435
procedure details: NCI tumour cell line growth inhibition, 48 h
The source made the active and inactive calls. Rule as the data show it: active = GI50 up to about 1.1 µM and inactive = higher. Non-standard residues stand in square brackets, D forms with d. Residues, ends and D or L forms follow the SMILES beside them. ξ: configuration not given here. *: point of attachment. NMeF = CN[C@@H](Cc1ccccc1)C(=O)O; NMeN = CN[C@@H](CC(N)=O)C(=O)O; NMeV = CN[C@H](C(=O)O)C(C)C; ξNMeV = CNC(C(=O)O)C(C)C; Boc = CC(C)(C)OC(=O)*; ξNMeA = CNC(C)C(=O)O; ξV = CC(C)C(N)C(=O)O
Catalogue of GI50 readings, one per entry.

Below are worked cases with known answers.
CCCCCCC1OC23OC1CCC2C(O)CCC3O (stereo not given) | > 100 µM (inactive)
Cn1c(COC(=O)NC2CCCCC2)c(COC(=O)NC2CCCCC2)c2ccc3ccccc3c21 | 14.3 µM (inactive)

[ask] For the compound COC(=O)C(C)N(C)C(=O)[C@H](CC(N)=O)N(C)C(=O)[C@@H]1CCCN1C(=O)[C@H](C(C)C)N(C)C(=O)C(C(C)C)N(C)C(=O)[C@H](Cc1ccccc1)N(C)C(=O)C(NC(=O)OC(C)(C)C)C(C)C (stereo not given in full) (Boc-[ξV][NMeF][ξNMeV][NMeV]P[NMeN][ξNMeA]-OMe) , what GI50 is on record?
[reply] 23.2 µM (inactive)

[ask] Next compound up: `CSc1ncnc2c1ncn2CCC#N`
[reply] > 100 µM (inactive)

[ask] Lookup COC(=O)[C@]1(C)CCCC2(C)C3=C(CCC21)CC1(CC3)SCCS1 (stereo not given in full)
[reply] > 10 µM (inactive)

[ask] Entry O=C(O)C1C2C=CC(O2)C1C(=O)NCc1ccccn1 (stereo not given) please
[reply] > 100 µM (inactive)

[ask] Try the compound `NC(=O)c1ccc(NS(=O)(=O)c2ccc(N)cc2)nc1`
[reply] > 100 µM (inactive)

[ask] How about COc1ccc(N2C(=O)/C(=C\c3cccc(Oc4ccccc4)c3)SC2c2ccccc2)cc1 (stereo not given) ?
[reply] 30.5 µM (inactive)
